- System: G3BP1 NFT2
- Assay type: binding, human
- setup.conditions: library DMS-CoV; bait G3BP1 NFT2; prey N; peptide APRITFGGPSDSTGSN; listed as aa = residue placed at this position; column sums to 1
value.kind: DMS PSSM value, S (position 10)

## Input Please report the recorded DMS PSSM value, S (position 10) for APRITFGGPSDSTGSN S10M (APRITFGGPMDSTGSN) .
## Output 0.2077

## Input Thanks! And APRITFGGPSDSTGSN S10D (APRITFGGPDDSTGSN) ?
## Output 0

## Input Thanks! And APRITFGGPSDSTGSN S10T (APRITFGGPTDSTGSN) ?
## Output 0.01147

## Input Thanks! And APRITFGGPSDSTGSN S10H (APRITFGGPHDSTGSN) ?
## Output 0

* * *

- target.of.assay: NSP9 (Severe acute respiratory syndrome coronavirus 2)
- method.description: biochemical
- Format: binding, SARS‐CoV‐2
value.kind: IC50 (µM)
Give the value in µM but do not write µM after it.

## Input Please report the recorded IC50 for Ac-QGSWLGAPEPWEPLLD-NH2 [NOTCH4 A1608S] .
## Output 583

## Input Thanks! And Ac-QGAWLGIPEPWEPLLD-NH2 [NOTCH4 A1612I] ?
## Output 149

## Input Thanks! And Ac-QGAWLGAPEPWEPLLD-NH2 [NOTCH4 wt] ?
## Output 205

## Input Thanks! And Ac-QGAWLGAPEYWEPLLD-NH2 [NOTCH4 P1615Y] ?
## Output 152

## Input Thanks! And Ac-QGAWLGAPVPWEPLLD-NH2 [NOTCH4 E1614V] ?
## Output 178

## Input Thanks! And Ac-QGAWLGAPEPWFPLLD-NH2 [NOTCH4 E1617F] ?
## Output 109

## Input Thanks! And Ac-QGVWLGAPEPWEPLLD-NH2 [NOTCH4 A1608V] ?
## Output 59

## Input Thanks! And Ac-QGAWLGAPEPYEPLLD-NH2 [NOTCH4 W1616Y] ?
## Output 167

## Input Thanks! And Ac-QGAWLGAVEPWEPLLD-NH2 [NOTCH4 P1613V] ?
## Output 105

## Input Thanks! And Ac-QGVWLGAVEPWEPLLD-NH2 [NOTCH4 A1608V P1613V] ?
## Output 33.4

* * *

- Test system: PABPC1 PABC
- Type: binding, human
- setup.conditions: DMS-BM library, bait PABPC1 PABC, prey ATXN2, peptide KSTLNPNAKEFNPRSF; R = wild type, row aa = residue at this position
Response field label takes y when DMS-derived PSSM value, position R14 is strictly below 0.03 and n in all other cases.

## Input # check: DMS-derived PSSM value, position R14 < 0.03 for KSTLNPNAKEFNPRSF R14K (KSTLNPNAKEFNPKSF)
## Output y

## Input Thanks! And KSTLNPNAKEFNPRSF R14T (KSTLNPNAKEFNPTSF) ?
## Output n

## Input Thanks! And KSTLNPNAKEFNPRSF R14F (KSTLNPNAKEFNPFSF) ?
## Output n

## Input Thanks! And KSTLNPNAKEFNPRSF R14G (KSTLNPNAKEFNPGSF) ?
## Output n

## Input Thanks! And KSTLNPNAKEFNPRSF R14W (KSTLNPNAKEFNPWSF) ?
## Output n
